# Test system: A549
# ASSAY_TEXT: Antiproliferative activity against human A549 cells after 48 hrs by MTT assay
# Assay type: functional, cell-based
# CONDITIONS_USED: A549, 48 h
Criterion: IC50 strictly under 10 µM. Met: T. Not met: F.

Request: Regarding "COc1cccc(C(=O)Nc2cccc(Nc3ncnc4c3Cc3ccccc3N4)c2)c1" , kindly confirm whether its IC50 is beneath 10 µM.
Response: F

Request: Lookup "O=C(Nc1ccc(Nc2ncnc3c2Cc2ccccc2N3)cc1)Nc1cccc(C(F)(F)F)c1"
Response: T

###

# Tested on: A549
# ASSAY_TEXT: Antiproliferative activity against human A549 cells after 48 hrs by MTT assay
# Assay type: functional, cell-based
# CONDITIONS_USED: A549, 48 h
Labelling field: enter 1 (yes) if recorded IC50 is less than 10 µM. Enter 0 (no) if it equals or exceeds that cut-off.

Use the examples below as a reference point.
>>> print(df.to_string())
                         chemical_structure  label_value
0  Cc1ccc(NC(=O)c2ccc(CN3CCN(C)CC3)cc2)cc1Nc1nccc(-c2cccnc2)n1      1 (yes)
1  O=C(Nc1cccc(Nc2ncnc3c2Cc2ccccc2N3)c1)c1cccc(C(F)(F)F)c1      1 (yes)
2  O=C(Nc1ccc(Nc2ncnc3c2Cc2ccccc2N3)cc1)Nc1cccc(Cl)c1       0 (no)

Request: Lab note: confirm whether the reported IC50 for this molecule is below 10 µM, equality not counting. molecule: "COc1cccc(NC(=O)Nc2ccc(Nc3ncnc4c3Cc3ccccc3N4)cc2)c1"
Response: 0 (no)

Request: Another molecule: "O=C(Nc1ccc(Nc2ncnc3c2Cc2ccccc2N3)cc1)c1ccccc1"
Response: 0 (no)

Request: Let us now turn to "Cc1cccc(C(=O)Nc2cccc(Nc3ncnc4c3Cc3ccccc3N4)c2)c1"
Response: 0 (no)

Request: "O=C(Nc1ccc(Nc2ncnc3c2Cc2ccccc2N3)cc1)c1cccc(C(F)(F)F)c1" , same question.
Response: 0 (no)
